# Assayed system: K243D/M319A double mutant of DegS (Escherichia coli, UniProt P0AEE3, K243D/M319A)
# Sequence (P0AEE3 27-355 K243D/M319A): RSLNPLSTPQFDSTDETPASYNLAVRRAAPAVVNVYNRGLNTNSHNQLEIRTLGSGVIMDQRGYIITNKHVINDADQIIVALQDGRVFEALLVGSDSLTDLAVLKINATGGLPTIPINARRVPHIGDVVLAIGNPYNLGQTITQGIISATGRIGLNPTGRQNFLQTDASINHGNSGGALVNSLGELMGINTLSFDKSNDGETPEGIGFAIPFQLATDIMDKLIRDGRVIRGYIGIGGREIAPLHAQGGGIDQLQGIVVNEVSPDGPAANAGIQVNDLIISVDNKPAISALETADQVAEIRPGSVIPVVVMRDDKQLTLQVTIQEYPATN
# Assay text: OMP-peptide activation of RseA cleavage by K243D/M319A DegS
Residues, ends and D or L forms follow the SMILES beside them.
Measured quantity: EC50 (nM)
Respond with the bare value in nM.

Would you mind telling me what EC50 value was observed for N[C@@H](Cc1ccc(O)cc1)C(=O)N[C@@H](Cc1ccc(O)cc1)C(=O)N[C@@H](Cc1ccccc1)C(=O)O [YYF] (H-Tyr-Tyr-Phe-OH) ?
700

Reference source: paper PMC2742306
